Catalogue of Ki values
- experimental_target: Bcl-2-like protein 1 (Homo sapiens)
- Sequence (Q07817 whole entry): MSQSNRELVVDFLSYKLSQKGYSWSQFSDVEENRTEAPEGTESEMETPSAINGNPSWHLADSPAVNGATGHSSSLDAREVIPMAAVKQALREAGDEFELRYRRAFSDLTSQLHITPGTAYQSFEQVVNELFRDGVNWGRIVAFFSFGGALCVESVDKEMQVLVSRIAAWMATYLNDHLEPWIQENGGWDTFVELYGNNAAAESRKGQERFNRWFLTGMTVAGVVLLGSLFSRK
- procedure_summary: Fluorescence Polarization Assay
- setup_conditions: pH 7.4; 25 °C
# number only, unit µM dropped from output

compound: CC(C)Cc1cc(CCC(=O)O)ccc1-c1ccc(-c2ccc(OCC(=O)O)c(Cc3cccc4ccccc34)c2)c(CC(C)C)c1
u: µM
Ki: 2.7
//
compound: CCc1cc(-c2ccc(OCC(=O)O)cc2C(C)C)ccc1-c1cccc(Cc2ccccc2)c1
u: µM
Ki: 3.27
//
compound: CC(C)Cc1cc(-c2ccc(-c3ccc(CCC(=O)O)cc3CC(C)C)cc2Cc2cccc3ccccc23)ccc1OCC(=O)O
u: µM
Ki: 0.114

Now consider the entry below.
Ki in this record for Cc1cc(OCC(=O)O)ccc1-c1ccc(-c2cccc(C(C)C)c2)c(C)c1 : 10.4
